Origin of the recorded values: patent US5401490A

Test: Tissue distribution of radioactivity after intravenous injection
Assay type: in vivo, BALB/C mice
Settings: mouse, blood, iv; 24 h, i.v.; read-out: Percent of Injected Dose per Gram, Blood
From the text: Tables 1 and 2 show the percent of injected IAZG and IAZA respectively per gram of wet tissue for selected tissues excised from BALB/C mice bearing EMT-6 tumors. This tumor model is known to have a high hypoxic fraction (0.33) (16). […] Hepatobiliary excretion may play a role in blood clearance as evidenced by elevated liver radioactivity and the appearance of activity in the intestine. […] This supposition is supported by the persistence of liver radioactivity at longer time periods. […]
valueKind: tissue uptake at 24 h (%ID/g)
Give bare numbers, in %ID/g.

Query: Identify tissue uptake at 24 h associated with the compound O=[N+]([O-])c1nccn1[C@@H]1O[C@H](CI)[C@@H](O)[C@@H]1O
Response: 0.037

Now look at this one.
Query: Identify tissue uptake at 24 h associated with the compound O=[N+]([O-])c1nccn1[C@@H]1O[C@H](CI)[C@H](O)[C@H](O)[C@H]1O
Response: 0.06

====

Assay: Tissue distribution of radioactivity after intravenous injection
Type: in vivo, BALB/C mice
Conditions: mouse, stomach, iv; 24 h, i.v.; read-out: Percent of Injected Dose per Gram, Stomach
Excerpt: Tables 1 and 2 show the percent of injected IAZG and IAZA respectively per gram of wet tissue for selected tissues excised from BALB/C mice bearing EMT-6 tumors. This tumor model is known to have a high hypoxic fraction (0.33) (16). […] Hepatobiliary excretion may play a role in blood clearance as evidenced by elevated liver radioactivity and the appearance of activity in the intestine. […] This supposition is supported by the persistence of liver radioactivity at longer time periods. […]
So I've got a bunch of molecules here, and I need their tissue uptake at 24 h values.
Answers are plain numbers, in %ID/g.

Parameters: items (list). Returns: tissue uptake at 24 h for each item.
1. O=[N+]([O-])c1nccn1[C@@H]1O[C@H](CI)[C@H](O)[C@H](O)[C@H]1O
2. O=[N+]([O-])c1nccn1[C@@H]1O[C@H](CI)[C@@H](O)[C@@H]1O

Response:
[0.06, 0.067]

====

So I've got a bunch of compounds here, and I need their tissue uptake at 0.25 h values.
test: Tissue distribution of radioactivity after intravenous injection; type: in vivo, BALB/C mice; conditions: mouse, stomach, iv; 0.25 h, i.v.; read-out: Percent of Injected Dose per Gram, Stomach
Answers are plain numbers, in %ID/g.

Query: Identify tissue uptake at 0.25 h associated with the compound O=[N+]([O-])c1nccn1[C@@H]1O[C@H](CI)[C@@H](O)[C@@H]1O
Response: 4.36

Now look at this one.
Query: Identify tissue uptake at 0.25 h associated with the compound O=[N+]([O-])c1nccn1[C@@H]1O[C@H](CI)[C@H](O)[C@H](O)[C@H]1O
Response: 3.29

====

So I've got a bunch of compounds here, and I need their tissue uptake at 1 h values.
assay: Tissue distribution of radioactivity after intravenous injection; type: in vivo, BALB/C mice; details: mouse, liver, iv; 1 h, i.v.; read-out: Percent of Injected Dose per Gram, Liver
Give bare numbers, in %ID/g.

Query: Identify tissue uptake at 1 h associated with the compound O=[N+]([O-])c1nccn1[C@@H]1O[C@H](CI)[C@H](O)[C@H](O)[C@H]1O
Response: 1.48

Next:
Query: Identify tissue uptake at 1 h associated with the compound O=[N+]([O-])c1nccn1[C@@H]1O[C@H](CI)[C@@H](O)[C@@H]1O
Response: 5.63

====

experiment: Tissue distribution of radioactivity after intravenous injection; format: in vivo, BALB/C mice; conditions: mouse, heart, iv; 1 h, i.v.; read-out: Percent of Injected Dose per Gram, Heart
valueKind: tissue uptake at 1 h

Query: Identify tissue uptake at 1 h associated with the compound O=[N+]([O-])c1nccn1[C@@H]1O[C@H](CI)[C@@H](O)[C@@H]1O
Response: 2.78 %ID/g

====

So I've got a bunch of compounds here, and I need their tissue uptake at 4 h values.
test: Tissue distribution of radioactivity after intravenous injection; type: in vivo, BALB/C mice; settings: mouse, tumor, iv; 4 h, i.v.; read-out: Percent of Injected Dose per Gram, Tumor
Numbers only, in %ID/g.

Query: Identify tissue uptake at 4 h associated with the compound O=[N+]([O-])c1nccn1[C@@H]1O[C@H](CI)[C@H](O)[C@H](O)[C@H]1O
Response: 0.43

Now look at this one.
Query: Identify tissue uptake at 4 h associated with the compound O=[N+]([O-])c1nccn1[C@@H]1O[C@H](CI)[C@@H](O)[C@@H]1O
Response: 2.08

====

experiment: Tissue distribution of radioactivity after intravenous injection; format: in vivo, BALB/C mice; details: mouse, lung, iv; 24 h, i.v.; read-out: Percent of Injected Dose per Gram, Lung
So I've got a bunch of molecules here, and I need their tissue uptake at 24 h values.
Give bare numbers, in %ID/g.

Query: Identify tissue uptake at 24 h associated with the molecule O=[N+]([O-])c1nccn1[C@@H]1O[C@H](CI)[C@H](O)[C@H](O)[C@H]1O [IAZG]
Response: 0.07

Next:
Query: Identify tissue uptake at 24 h associated with the molecule O=[N+]([O-])c1nccn1[C@@H]1O[C@H](CI)[C@@H](O)[C@@H]1O [IAZA]
Response: 0.037

====

assay: Tissue distribution of radioactivity after intravenous injection; format: in vivo, BALB/C mice; settings: mouse, spleen, iv; 4 h, i.v.; read-out: Percent of Injected Dose per Gram, Spleen
valueKind: tissue uptake at 4 h (%ID/g)
Answers are plain numbers, in %ID/g.

Query: Identify tissue uptake at 4 h associated with the molecule O=[N+]([O-])c1nccn1[C@@H]1O[C@H](CI)[C@@H](O)[C@@H]1O [IAZA]
Response: 0.35

====

So I've got a bunch of molecules here, and I need their tissue uptake at 0.25 h values.
experiment: Tissue distribution of radioactivity after intravenous injection; assay type: in vivo, BALB/C mice; conditions: mouse, lung, iv; 0.25 h, i.v.; read-out: Percent of Injected Dose per Gram, Lung
Numbers only, in %ID/g.

Query: Identify tissue uptake at 0.25 h associated with the molecule O=[N+]([O-])c1nccn1[C@@H]1O[C@H](CI)[C@@H](O)[C@@H]1O [IAZA]
Response: 4.61

Now look at this one.
Query: Identify tissue uptake at 0.25 h associated with the molecule O=[N+]([O-])c1nccn1[C@@H]1O[C@H](CI)[C@H](O)[C@H](O)[C@H]1O [IAZG]
Response: 2.77

====

So I've got a bunch of compounds here, and I need their tissue uptake at 4 h values.
assay: Tissue distribution of radioactivity after intravenous injection; format: in vivo, BALB/C mice; details: mouse, blood, iv; 4 h, i.v.; read-out: Percent of Injected Dose per Gram, Blood
The answer consists of two parts: a number and, after it, its unit.

Query: Identify tissue uptake at 4 h associated with the compound O=[N+]([O-])c1nccn1[C@@H]1O[C@H](CI)[C@@H](O)[C@@H]1O
Response: 0.45 %ID/g

Now look at this one.
Query: Identify tissue uptake at 4 h associated with the compound O=[N+]([O-])c1nccn1[C@@H]1O[C@H](CI)[C@H](O)[C@H](O)[C@H]1O
Response: 0.28 %ID/g

====

So I've got a bunch of molecules here, and I need their tissue uptake at 8 h values.
experiment: Tissue distribution of radioactivity after intravenous injection; type: in vivo, BALB/C mice; details: mouse, kidney, iv; 8 h, i.v.; read-out: Percent of Injected Dose per Gram, Kidney
Give bare numbers, in %ID/g.

Parameters: items (list). Returns: tissue uptake at 8 h for each item.
1. O=[N+]([O-])c1nccn1[C@@H]1O[C@H](CI)[C@H](O)[C@H](O)[C@H]1O
2. O=[N+]([O-])c1nccn1[C@@H]1O[C@H](CI)[C@@H](O)[C@@H]1O

Response:
1: 0.4; 2: 0.34

====

assay: Tissue distribution of radioactivity after intravenous injection; format: in vivo, BALB/C mice; details: mouse, tumor, iv; 8 h, i.v.; read-out: Percent of Injected Dose per Gram, Tumor
So I've got a bunch of compounds here, and I need their tissue uptake at 8 h values.
Give bare numbers, in %ID/g.

Query: Identify tissue uptake at 8 h associated with the compound O=[N+]([O-])c1nccn1[C@@H]1O[C@H](CI)[C@H](O)[C@H](O)[C@H]1O
Response: 0.23

Now look at this one.
Query: Identify tissue uptake at 8 h associated with the compound O=[N+]([O-])c1nccn1[C@@H]1O[C@H](CI)[C@@H](O)[C@@H]1O
Response: 1.22

====

test: Tissue distribution of radioactivity after intravenous injection; assay type: in vivo, BALB/C mice; conditions: mouse, tumor, iv; 1 h, i.v.; read-out: Percent of Injected Dose per Gram, Tumor
So I've got a bunch of molecules here, and I need their tissue uptake at 1 h values.
Give bare numbers, in %ID/g.

Query: Identify tissue uptake at 1 h associated with the molecule O=[N+]([O-])c1nccn1[C@@H]1O[C@H](CI)[C@H](O)[C@H](O)[C@H]1O
Response: 1.21

Now look at this one.
Query: Identify tissue uptake at 1 h associated with the molecule O=[N+]([O-])c1nccn1[C@@H]1O[C@H](CI)[C@@H](O)[C@@H]1O
Response: 2.7
